Data credit: patent US8546381B2

# MEASURED TARGET: human recombinant serotonin (5-Hydroxytryptamine) 5-HT2A receptor (Homo sapiens)
# Construct: expressed in transfected cells; host or cells: CHO-K1 cells
# Sequence (P28223 whole entry): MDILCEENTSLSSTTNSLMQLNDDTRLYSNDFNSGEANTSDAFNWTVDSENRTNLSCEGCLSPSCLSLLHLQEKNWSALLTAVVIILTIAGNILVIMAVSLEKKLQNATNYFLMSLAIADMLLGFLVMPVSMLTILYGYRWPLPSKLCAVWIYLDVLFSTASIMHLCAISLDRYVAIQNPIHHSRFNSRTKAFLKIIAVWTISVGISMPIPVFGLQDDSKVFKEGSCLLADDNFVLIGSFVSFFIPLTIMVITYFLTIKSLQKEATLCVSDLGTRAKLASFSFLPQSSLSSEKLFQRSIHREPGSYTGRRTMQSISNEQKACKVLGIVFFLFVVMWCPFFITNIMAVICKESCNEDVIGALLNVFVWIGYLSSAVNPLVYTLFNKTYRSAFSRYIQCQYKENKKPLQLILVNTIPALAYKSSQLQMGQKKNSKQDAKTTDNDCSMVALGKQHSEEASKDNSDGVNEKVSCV
# TEST: Serotonin 5-HT2A radioligand binding ([3H]Ketanserin)
# ASSAY CONTEXT: read-out: Serotonin 5-HT2A, inhibition of ligand binding (1 μM)
# Method: To evaluate in radioligand binding assays the activity of compounds of the invention, human recombinant serotonin (5-Hydroxytryptamine) 5-HT2A receptor expressed in Chinese hamster ovary (CHO-K1) cells (Bonhaus, D. W. et al. Br. J. Pharmacol. 115:622, 1995; Saucier, C. and Albert, P. R., J. Neurochem. 68:1998, 1997) in a 50 mM Tris-HCl buffer, pH 7.4, was used. […] Receptor proteins were filtered and washed, the filters were then counted to determine [^3H]Ketanserin specifically bound. […]
This section presents molecules with their documented inhibition at 1 µM values.
Give your result in % as a bare value.

>>> assay_result("CN1C2CCC1c1c(n(C#Cc3ccc(Cl)cc3)c3ccc(Cl)cc13)C2 (centres unmarked)")
98
>>> assay_result("Cc1cncc(CCn2c3c(c4cc(Cl)ccc42)C2CCC(C3)N2C)c1 (centres unmarked)")
27
>>> assay_result("CN1C2CCC1c1c(n(CCC(=O)N3CC[S+]([O-])CC3)c3ccc(Cl)cc13)C2 (centres unmarked)")
-5

In: Give its inhibition at 1 µM value. Item: Cc1ccc2c(c1)c1c(n2CCc2cnc(C)nc2)CC2CCC1N2C (centres unmarked)
Out: -12
